Sourced from the supplement of paper PMC4466140

target: CaFus1; test: SPOT peptide array binding signal intensity (averaged, normalized) (arbitrary units (background-subtracted, floor 0; scale differs between SH3 domains)); higher = stronger binding of the SH3 domain to the peptide
Assign SPOT peptide array binding signal intensity to each entry below.
Give a plain numeric answer without units written out.

Ask: Item RKQRSIPLSPIVPES has what recorded SPOT peptide array binding signal intensity?
Result: 368

Ask: Item under review: VNFRRIPTGPDSPPT . Reported SPOT peptide array binding signal intensity?
Result: 141

Ask: If you can, please state the reported SPOT peptide array binding signal intensity value of VSKLRSPNTPRRLRK .
Result: 230

Ask: Find the recorded SPOT peptide array binding signal intensity belonging to LKHGWKPLRPIKLIS and report it.
Result: 850
